ASSAY: Pharmacokinetic study in mice, non-compartmental analysis
Format: in vivo, Female BALB/c mice
CONDITION_SUMMARY: female, BALB/c, mouse, plasma, iv, 10 mg/kg
MEASURED_ATTRIBUTE: k el (s⁻¹)
Numbers only, in s⁻¹.

## Task Give the value of k el reported for the following: Cc1[nH]nc(C(F)(F)F)c1Cc1sc2c(c1C(=O)N1C[C@](C)(O)CO1)c(=O)n(C)c(=O)n2C(C)C
## Result 6.61e-05

----------
ASSAY: Pharmacokinetic study in mice, non-compartmental analysis
Assay type: in vivo, Female BALB/c mice
CONDITION_SUMMARY: female, BALB/c, mouse, plasma, po, 100 mg/kg
MEASURED_ATTRIBUTE: Tmax (min)
Answers are plain numbers, in min.

## Task Write down Tmax measured for item Cc1[nH]nc(C(F)(F)F)c1Cc1sc2c(c1C(=O)N1C[C@](C)(O)CO1)c(=O)n(C)c(=O)n2C(C)C
## Result 20
